- Tested on: Fer (mouse)
- protocol_text: phosphorylation enrichment, bacterial display (enrichment ratio); higher = better substrate or ligand; peptides without Tyr show the background
Items are presented alongside their recorded phosphorylation enrichment.
Form rule: numeric answer, no unit written next to it.

Which measured phosphorylation enrichment belongs to STEAIYWRFSK [SH3PXD2B_Y42_R43W_YF] , tested on Fer (mouse)? 0.564

# iterate: KLFFHYNPKLC [INSR_Y457] 0.566

# iterate: LENSTYQYIRV [CRB1_Y760] 25.5

More entries:
Which measured phosphorylation enrichment belongs to VGNPAYRSFSN [IL4R_Y497_A492V] , tested on Fer (mouse)? 0.509

# iterate: GPQGVYSNKLV [PTPN14_Y506] 0.407

* * *

- test_system: Fyn (UniProt P06241)
- Sequence (P06241 whole entry, looked up): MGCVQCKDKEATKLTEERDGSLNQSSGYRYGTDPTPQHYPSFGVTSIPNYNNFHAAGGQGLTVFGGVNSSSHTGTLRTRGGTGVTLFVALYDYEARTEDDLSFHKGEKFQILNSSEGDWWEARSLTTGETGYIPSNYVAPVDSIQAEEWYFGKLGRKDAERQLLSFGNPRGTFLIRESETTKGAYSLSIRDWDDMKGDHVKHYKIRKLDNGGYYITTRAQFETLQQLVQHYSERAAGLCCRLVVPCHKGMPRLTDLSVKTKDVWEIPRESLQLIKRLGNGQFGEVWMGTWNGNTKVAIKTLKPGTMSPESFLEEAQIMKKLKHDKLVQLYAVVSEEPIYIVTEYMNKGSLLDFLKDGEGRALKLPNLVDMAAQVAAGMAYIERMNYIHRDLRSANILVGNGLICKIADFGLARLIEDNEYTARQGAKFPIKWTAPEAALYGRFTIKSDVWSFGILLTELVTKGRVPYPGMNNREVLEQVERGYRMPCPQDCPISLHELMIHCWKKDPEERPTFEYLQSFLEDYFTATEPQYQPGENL
- protocol_text: phosphorylation enrichment, bacterial display (enrichment ratio); higher = better substrate or ligand; peptides without Tyr show the background
Items are presented alongside their recorded phosphorylation enrichment.
Form rule: numeric answer, no unit written next to it.

I'd like to know its phosphorylation enrichment. The sequence in question is HGEAFYSEVKP [PAK5_Y182_YF] 2.95

# iterate: ERDYTYDELLN [EIF2S2_Y176_E177D] 0.631

# iterate: DRLASYPEKVR [KRT13_Y118_L119P] 0.35

More entries:
I'd like to know its phosphorylation enrichment. The sequence in question is THEVRYISAGQ [SLCO4A1_Y77_V78I] 0.391

# iterate: VDDEIYYFRKP [PBRM1_Y1289] 8.84

# iterate: VHNLDYYKMTT [FGFR3_Y647_K650M] 0.439

# iterate: CETMEYLESKQ [BTK_Y511_A508T] 0.578

# iterate: TVQVAYFTMMM [SPATA17_Y83_YF] 0.5

# iterate: WGLRSYYETSK [MAGED2_Y448] 0.4

# iterate: HDRNTYEKFLE [TF_Y666_G671E_YF] 0.741

# iterate: GFQPDYGQPAG [SYP_Y278_YF] 0.435

# iterate: RTVPLYESPRK [DDB1_Y718] 3.13

# iterate: IRQDHYESLKE [MTR_Y921] 0.494

# iterate: DLFRLYVCVKE [ARID1B_Y1091] 0.396

* * *

- test_system: Grb2 SH2 (UniProt P62993)
- Sequence (P62993 whole entry, looked up): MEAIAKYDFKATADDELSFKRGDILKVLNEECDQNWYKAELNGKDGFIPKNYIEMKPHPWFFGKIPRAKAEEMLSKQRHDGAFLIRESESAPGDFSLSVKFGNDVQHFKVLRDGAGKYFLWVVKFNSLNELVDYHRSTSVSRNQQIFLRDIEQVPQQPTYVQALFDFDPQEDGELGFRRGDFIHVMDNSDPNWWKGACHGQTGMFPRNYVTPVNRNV
- protocol_text: SH2 binding enrichment of the phosphorylated peptide, bacterial display (enrichment ratio); higher = better substrate or ligand; peptides without Tyr show the background
Param threshold (0.9) applies to SH2 binding enrichment; output satisfied when value >= threshold, not satisfied when value < threshold.

Known results for sequences:
Could you please find out whether IDGLEYLHSPG [STK11_Y166_Q170P] has SH2 binding enrichment that meets 0.9 or exceeds it? not satisfied

# iterate: SSPVPYLSPET [TJP1_Y931] not satisfied

# iterate: EEKKKYFDAKI [CASP5_Y103_T106A_YF] satisfied

More entries:
Could you please find out whether LQEKSYIKGTS [LCTL_Y331] has SH2 binding enrichment that meets 0.9 or exceeds it? satisfied

# iterate: GGDQPYSGAGD [TYRO3_Y828_R824G] not satisfied

# iterate: PPAPRYHHLAV [LZTR1_Y119_S122L] satisfied

# iterate: VERRVYAEDPF [PCCA_Y401_C398R_YF] satisfied

# iterate: GIMEEYQLPFF [BMPR1A_Y453_V450M_YF] not satisfied

# iterate: LNWIYYKDQTG [RS1_Y166] satisfied

# iterate: FRDMDYRSFPR [RBM10_Y41_YF] satisfied

# iterate: RNPLRYTSILT [OR51B6_Y130_S126N] satisfied

# iterate: FTFDPYSEEEP [IL2RB_Y387_D391E_YF] satisfied

# iterate: KSDVMYTDWKK [ORM1_Y175_V174M] not satisfied

# iterate: YYHCTYKQRMI [CLEC12A_Y242_K244Q] satisfied

# iterate: RHCSGYVLIAM [EFR3A_Y73_R70C] satisfied

# iterate: RSHRSYSCQVM [IGLL1_Y192_R189H] satisfied

# iterate: FVHDNYVIWRT [CPS1_Y1450_R1453W] satisfied

# iterate: DNACQYMLTDR [MYH7_Y164_Y162C] not satisfied

# iterate: FSCLPYRRLAY [SLC52A2_Y305_G306R] satisfied

# iterate: MSSHHYDFKKF [ZNF445_Y428_YF] not satisfied

# iterate: "PGVNYYFQVSA" satisfied

# iterate: GRQGIYTKNER [GPR143_Y231_E233K] satisfied

# iterate: KFRREYILSLE [GPC3_Y299_W296R_YF] not satisfied

# iterate: DQIDTYELSGA [DNM1_Y354_G359A] not satisfied

# iterate: HQNGMYGLHQD [SGSH_Y89] satisfied

Values from the supplement of paper PMC10065799
